# measurement_target: T1, Human PD-1 (AcroBiosystems) (human, UniProt Q15116 25-167, limits assumed)
# T1 construct: Bought recombinant protein, amine-coupled to the SPR chip
# T1 sequence (Q15116 25-167 limits assumed): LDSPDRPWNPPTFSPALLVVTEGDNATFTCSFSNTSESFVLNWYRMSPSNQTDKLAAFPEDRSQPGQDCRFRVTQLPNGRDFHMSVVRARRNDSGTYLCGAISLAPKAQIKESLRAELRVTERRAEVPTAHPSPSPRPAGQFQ
# measurement_description: SPR (ProteOn XPR), human PD-1 amine-coupled on GLC chip, antibody as analyte, Langmuir model
# Method: Human PD-1 (AcroBiosystems) was directly immobilized onto the GLC Chip (ProteOn) using amine-coupling method to obtain a ligand immobilization level of about 500 RU. […] KD values (Kinetic constants) were determined as the ratio of dissociation rate (kd) to association rate (ka), i.e. KD =kd/ka using ProteOn manager software v3.1.0.6.
List of Kd values.
Write down the numeric answer in nM and omit the unit.

1. IP-H4.36L1 (antibody, human IgG4 S228P, kappa, V domains shown) VH: QVQLVQSGVEVKKPGASVKVSCKASGYTFTTYYIYWVRQAPGQGLEWMGGVNPSNGGTNYNQNYKNRVTLTTDSSTTTAYMELKSLQFDDTAVYYCARRDYRYDMGFDYWGQGTTVTVSS VL: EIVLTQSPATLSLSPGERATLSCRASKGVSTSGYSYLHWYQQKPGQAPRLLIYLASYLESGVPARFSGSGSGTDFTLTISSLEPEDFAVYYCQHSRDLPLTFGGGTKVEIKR: 0.0317

Q: Give the measured Kd of N6NL (antibody, human IgG4 S228P, kappa, V domains shown, Full-length IgG4 from the pZRCIII hyg.IgG4 vector) VH: QVQLVESGGGVVQPGRSLRLDCKASGITFSNSGMHWVRQAPGKGLEWVAVIWYDGSKRYYADSVKGRFTISRDNSKNTLFLQMNSLRAEDTAVYYCATNSDHWGQGTLVTVSS VL: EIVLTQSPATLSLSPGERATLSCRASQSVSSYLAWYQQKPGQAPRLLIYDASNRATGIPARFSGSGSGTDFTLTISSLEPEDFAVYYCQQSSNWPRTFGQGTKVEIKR .
Result: 0.0826

Q: One more binder: IP-H4.19L1 (antibody, human IgG4 S228P, kappa, V domains shown) VH: QVQLVQSGVEVKKPGASVKVSCKASGYTFTTYYIYWVRQAPGQGLEWMGGVNPSNSGTNYNENYKNRVTLTTDSSTTTAYMELKSLQFDDTAVYYCARRDYRYDMGFDYWGQGTTVTVSS VL: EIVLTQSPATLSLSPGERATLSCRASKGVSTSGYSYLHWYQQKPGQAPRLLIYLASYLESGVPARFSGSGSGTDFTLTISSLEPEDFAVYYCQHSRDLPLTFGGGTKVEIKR
Result: 0.0409

Data credit: patent US20220289846A1
